Recorded IC50, one value per entry.
System under test: CXCR2 (Homo sapiens (Human), UniProt P25025)
Sequence (P25025 whole entry): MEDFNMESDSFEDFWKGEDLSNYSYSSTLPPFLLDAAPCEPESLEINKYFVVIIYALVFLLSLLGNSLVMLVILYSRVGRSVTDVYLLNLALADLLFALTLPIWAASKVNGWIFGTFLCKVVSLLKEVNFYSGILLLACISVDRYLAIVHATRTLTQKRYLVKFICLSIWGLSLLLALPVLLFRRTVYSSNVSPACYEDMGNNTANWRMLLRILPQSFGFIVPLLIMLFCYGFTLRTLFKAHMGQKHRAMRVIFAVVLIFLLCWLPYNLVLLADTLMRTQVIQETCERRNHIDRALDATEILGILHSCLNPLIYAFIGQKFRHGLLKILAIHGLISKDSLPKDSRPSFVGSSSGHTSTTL
Experiment: Inhibition of GROα-mediated intracellular calcium release in human neutrophils (FLIPR-3 Ca2+ mobilization)
Assay type: cell-based
Applied conditions: human neutrophils, 25 nM GROα; read-out: IC50

Illustrative cases are given below, each with its answer.
# Compound, IC50
data = [
    ("N#Cc1cccc(C(=O)CSc2ccc(C(=O)Nc3ccc(F)cc3)cn2)c1 [Compound 103]", "> 5000 nM"),
    ("O=C(Nc1ccc(F)cc1)c1ccc(SCC(=O)c2ccsn2)nc1 [Compound 144]", "2240 nM"),
]

For record O=C(Nc1ccc(F)cc1)c1ccc(SCC2CCCO2)nc1 (centres unmarked) [Compound 76] the listed IC50 is 542 nM

Please fill in: IC50 reported for O=C(Nc1ccc(F)cc1)c1ccc(SCC2COc3ccccc3O2)nc1 (centres unmarked) [Compound 51] = 760 nM

The measured IC50 associated with O=C(Nc1ccc(F)cc1)c1ccc(SCc2ccccc2C(=O)O)nc1 [Compound 24] reads 1480 nM

Reported IC50 for CC(=O)Oc1ccc(OC(F)(F)F)cc1CSc1ccc(C(=O)Nc2ccc(F)cc2)cn1 [Compound 14a] was 1060 nM

Record O=C(Nc1ccc(F)cc1)c1ccc(SCc2ccccc2B(O)O)nc1 [Compound 1] . Reported IC50: 38 nM

Record summary for O=C(Nc1ccc(F)cc1)c1ccc(SCS(=O)(=O)c2ccccc2)nc1 [Compound 83] : reported IC50 = > 5000 nM
